assay.target: CphA (Aeromonas hydrophila)
Construct: made in house
Sequence (P26918 28-254): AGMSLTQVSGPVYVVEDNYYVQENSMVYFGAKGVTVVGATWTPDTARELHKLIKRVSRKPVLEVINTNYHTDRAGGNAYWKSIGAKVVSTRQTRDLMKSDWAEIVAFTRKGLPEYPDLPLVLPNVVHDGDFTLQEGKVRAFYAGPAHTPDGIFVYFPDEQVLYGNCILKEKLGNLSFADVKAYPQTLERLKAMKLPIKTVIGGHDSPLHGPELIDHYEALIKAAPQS
assay.explanation: CphA (subclass B2 MBL) inhibition
Type: biochemical
Experimental: Inhibition analyses against bacterial MBLs and SBLs were performed as described previously.[22], [24], [26] Residual enzyme activities were determined for a range of inhibitor concentrations. Non-linear regression fitting of IC50 curves was carried out using a three-parameter dose–response curve in GraphPad Prism. Errors in IC50 values are expressed as: σ(logIC50)/logIC50×IC50 […]
pIC50: −log10 of the molar value.
For each of the compounds below, state its pIC50.

Input: Tell me the measured pIC50 of CN1CCN(NC(=O)CN2C(=O)/C(=C/c3ccccc3)SC2=S)CC1 [Compound 5a] , please.
Output: < 4.30

Input: Which pIC50 value is on record for CN1CCN(NC(=O)CN2C(=O)/C(=C/c3c(Cl)cccc3Cl)SC2=S)CC1 [Compound 5m] ?
Output: < 4.30

Input: Dear colleague, I am looking for the recorded pIC50 of the following compound: O=C(O)C(O)Cc1ccccc1 (centres unmarked) [3-Phenyllactic acid, reference compound]
Output: < 4.00

Input: Reported pIC50 for O=C(O)C(O)c1ccccc1 (centres unmarked) [Mandelic acid, reference compound] : what is it?
Output: < 4.00

Input: Value lookup for pIC50; key = O=C(O)/C(S)=C/c1c(Cl)cccc1Cl [Compound 6m]
Output: 6.10
